assayProcedure: Toxicity liver stage against HepG2, at 10uM
Assay type: cell-based
Design: test concentration 10 uM, cell line HepG2-A16-CD81EGFP
conditions: human, HepG2-A16-CD81EGFP cells; read-out: INHIBITION
metric: cytotoxicity at 10 µM (%)

1. CN(C)C[C@@H]1CN(C(=O)c2cc(F)ccc2F)C[C@@H]1CO | 7.45
2. Cc1nn(C)c(C)c1C(=O)NCc1cc(N(C)C)nc2ccccc12 | -1.08
3. CN1CCC2(Cc3ccccc3CN(C(=O)CCN)C2)C1 (stereo unspecified) | 0.17
4. CC(C)(C)Oc1ccc(NCC(=O)NCc2ccco2)cc1 | 2.21
5. O=C(COc1cccc2c1CCC2=O)NCCSc1ccccc1 | -1.22
6. N#Cc1cc(S(N)(=O)=O)ccc1NC1CCc2cc(Cl)ccc21 (stereo unspecified) | 29.1
7. CC(=O)NCC(=O)N1Cc2nccn2CC(CN2CCCC2=O)C1 (stereo unspecified) | -76.9
8. O=C(Nc1ccc(Cn2cccn2)cc1)N1CCC2(CC1)OCCO2 | 6.09
9. Cc1nc(CN2C(=O)CCC23CCN(Cc2cccn2C)CC3)cs1 | 0.676
10. COC[C@]1(O)CCN(Cc2cnc(N3CCOCC3)nc2)CC1(C)C | 1.4
11. Cc1ccc2cnn(CCC(=O)Nc3nc(C)c(C)s3)c2c1 | 2.57
12. O=C(NCCNC(=O)N1CCC(c2ccccc2)C1)C1CC1 (stereo unspecified) | -3.08
13. Cc1csc(N2CCN(C(=O)Cc3ccsc3)CC2)n1 | 2.68
14. CN(Cc1ccc(F)c2cccnc12)C1CCS(=O)(=O)C1 (stereo unspecified) | 5.93
15. COc1cccc2c1N(C(=O)c1ccc(C)nc1)CCC2 | 1.36
16. Cc1cccnc1CN(C)C(C(=O)O)c1ccc(-n2cccn2)cc1 (stereo unspecified) | -4.86
17. c1ccc(C2CCCN2C2CCSCC2)nc1 (stereo unspecified) | 9.03
18. O=C(c1ccc(NCc2cccc(F)c2)cc1)N1CCCC1 | 10.1
19. Cc1nc(C)c(C(=O)N2CCc3nnc(C4CCCCN4C)n3CC2)o1 (stereo unspecified) | 1.9
20. Cn1cc(CN2CCOCC3(CCN(C4CCOCC4)C3)C2)cn1 (stereo unspecified) | -3.92
21. CC(C)(C)C(=O)NCCn1ccc(-c2ccccn2)n1 | 6.47
22. Cc1nc(CNC(=O)NCC2(C)CCCc3ccccc32)no1 (stereo unspecified) | -3.05
23. CCN1CCn2c(C)cnc2C12CCN(C(=O)c1cscn1)CC2 | 6.59
24. COc1cccc(OC)c1C(=O)N1CCN(c2ccccc2F)CC1 | -5.22
25. COCCN1CCC(NCc2c(C)nn(C)c2N(C)C)CC1 | -2.11
26. O=C(N[C@@H]1CN(c2ncccn2)C[C@@H]2CCCO[C@@H]21)c1cccnc1 | 11.4
27. CCN(CC)C(=O)[C@@H]1C[C@@H](NC(=O)c2ccoc2)CN1C | 2.37
28. O=C(C(CNCc1ccsc1)c1ccccc1)N1CCOCC1 (stereo unspecified) | -7.32
29. Cc1noc(Cl)c1CC(=O)N1CCCC1Cn1cccn1 (stereo unspecified) | -9.76
30. CN1CCN(C2COC3(CCN(Cc4ccsc4)CC3)C2)CC1 (stereo unspecified) | -77.1
31. Cc1ccc(NC2CCN(C(=O)CCCc3cccs3)CC2)nn1 | -8.49
